- Protocol: Ratio of drug level in brain to plasma in C57BL/6 mouse at 25 mg/kg, ip after 0.5 to 2 hrs by LC/MS/MS analysis
- Format: ADME, organism-based
- Condition notes: brain and plasma, read-out: BPR
Measure name: Kp
Answer using only a numeral; do not append any unit.

Asked: Record request: Kp value, item O=C(CCCCCC(=O)N/N=C/c1ccc(-c2cccnc2)cc1)NO
Given back: 0.03

* * *

- Protocol: Cmax in C57BL/6 mouse brain at 25 mg/kg, ip after 1 hr by LC/MS/MS analysis
- Type: ADME, organism-based
- Parameters: dose 25 mg/kg, route intraperitoneal
Measure name: Cmax (nM)
Write the value in nM as a bare number.

Asked: Record request: Cmax value, item O=C(CCCCCC(=O)N/N=C/c1ccc(-c2cccnc2)cc1)NO
Given back: 79.1
